Provide the reported MIC of each item.
# Tested on: Moraxella catarrhalis
# method.description: Antibacterial activity against Moraxella catarrhalis clinical isolate 2824 after 18 hrs by NCCLS agar dilution method
# Format: functional
# condition.set: clinical isolate 2824, 18 h
Answer in µg/mL, number only, no unit symbol.

Q: Quick one: MIC of Cc1cn(C[C@H]2CN(c3ccc(N4CCN(C(=O)CNC(=O)c5cccs5)CC4)c(F)c3)C(=O)O2)nn1 ?
Ans: 8

Q: Entry O=C(NCC(=O)N1CCN(c2ccc(N3C[C@H](Cn4ccnn4)OC3=O)cc2F)CC1)c1cc([N+](=O)[O-])cc([N+](=O)[O-])c1 has what MIC?
Ans: 0.25

Q: For O=C(NCC(=O)N1CCN(c2ccc(N3C[C@H](Cn4ccnn4)OC3=O)cc2F)CC1)c1ccc([N+](=O)[O-])o1 , what is its reported MIC?
Ans: 1

Q: Would you kindly share the measured MIC for CC(=O)NC[C@H]1CN(c2ccc(N3CCOCC3)c(F)c2)C(=O)O1 ?
Ans: 8

Q: Look up MIC for this molecule: Cc1cn(C[C@H]2CN(c3ccc(N4CCN(C(=O)CNC(=O)c5ccc([N+](=O)[O-])o5)CC4)c(F)c3)C(=O)O2)nn1
Ans: 1

Q: If you can, please state the reported MIC value of O=C(NCC(=O)N1CCN(c2ccc(N3C[C@H](Cn4ccnn4)OC3=O)cc2F)CC1)c1cccnc1 .
Ans: 8

Q: Name the recorded MIC for Cc1cn(C[C@H]2CN(c3ccc(N4CCN(C(=O)CNC(=O)c5ccccc5)CC4)c(F)c3)C(=O)O2)nn1 .
Ans: 4

Q: Value lookup for MIC; key = O=C(NCC(=O)N1CCN(c2ccc(N3C[C@H](Cn4ccnn4)OC3=O)cc2F)CC1)c1cccs1
Ans: 8

Data origin: ChEMBL document CHEMBL2412955
